Reference source for all entries: ChEMBL document CHEMBL1126340

# Thromboxane-A synthase (Homo sapiens, UniProt P24557): IC50 values follow
# Sequence (P24557 whole entry): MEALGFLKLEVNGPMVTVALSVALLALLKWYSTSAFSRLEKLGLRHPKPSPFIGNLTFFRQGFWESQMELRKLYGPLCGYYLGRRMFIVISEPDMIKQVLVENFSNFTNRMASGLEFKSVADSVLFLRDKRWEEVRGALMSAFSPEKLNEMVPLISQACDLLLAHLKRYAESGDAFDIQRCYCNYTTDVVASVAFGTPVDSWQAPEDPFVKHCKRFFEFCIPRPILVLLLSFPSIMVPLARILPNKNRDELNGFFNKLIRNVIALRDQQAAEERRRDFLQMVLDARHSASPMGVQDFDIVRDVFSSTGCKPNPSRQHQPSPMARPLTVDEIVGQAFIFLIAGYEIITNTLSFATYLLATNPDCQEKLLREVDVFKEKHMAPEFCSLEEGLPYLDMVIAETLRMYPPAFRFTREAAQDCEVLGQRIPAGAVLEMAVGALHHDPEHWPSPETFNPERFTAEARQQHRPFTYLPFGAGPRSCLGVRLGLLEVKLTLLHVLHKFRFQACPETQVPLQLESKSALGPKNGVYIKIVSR
The reply should contain only the number, in nM.

Below: 2 compounds and their reported IC50.
Under Thromboxane-A synthase (Homo sapiens, UniProt P24557): IC50 value of `CC1(C)OC[C@@H](C/C=C\CCC(=O)O)[C@@H](c2cccs2)O1` ?
4100

Under Thromboxane-A synthase (Homo sapiens, UniProt P24557): IC50 value of `CC1(C)OC[C@@H](C/C=C\CCC(=O)O)[C@@H](c2ccnnc2)O1` ?
7400

---
Under Thromboxane-A synthase (Homo sapiens, UniProt P24557): IC50 value of `Cc1ccc(OC(C)(C)[C@H]2OC[C@@H](C/C=C\CCC(=O)O)[C@@H](c3cncn3C)O2)c([N+](=O)[O-])c1` ?
50

Under Thromboxane-A synthase (Homo sapiens, UniProt P24557): IC50 value of `CC1(C)OC[C@@H](C/C=C\CCC(=O)O)[C@@H](c2cccnc2)O1` ?
120

Under Thromboxane-A synthase (Homo sapiens, UniProt P24557): IC50 value of `CCCCCCn1cncc1[C@H]1O[C@@H](C(C)(C)Oc2ccc(C)cc2[N+](=O)[O-])OC[C@H]1C/C=C\CCC(=O)O` ?
490

Under Thromboxane-A synthase (Homo sapiens, UniProt P24557): IC50 value of `Cc1ccc(OC(C)(C)[C@H]2OC[C@@H](C/C=C\CCC(=O)O)[C@@H](c3cccnc3)O2)c([N+](=O)[O-])c1` ?
19

Under Thromboxane-A synthase (Homo sapiens, UniProt P24557): IC50 value of `Cn1cncc1[C@H]1OC(C)(C)OC[C@H]1C/C=C\CCC(=O)O` ?
70

* * *

Parameter Kb: see the listing below.
# tested system: Thromboxane A2 receptor (Homo sapiens)
# Sequence (P21731 whole entry): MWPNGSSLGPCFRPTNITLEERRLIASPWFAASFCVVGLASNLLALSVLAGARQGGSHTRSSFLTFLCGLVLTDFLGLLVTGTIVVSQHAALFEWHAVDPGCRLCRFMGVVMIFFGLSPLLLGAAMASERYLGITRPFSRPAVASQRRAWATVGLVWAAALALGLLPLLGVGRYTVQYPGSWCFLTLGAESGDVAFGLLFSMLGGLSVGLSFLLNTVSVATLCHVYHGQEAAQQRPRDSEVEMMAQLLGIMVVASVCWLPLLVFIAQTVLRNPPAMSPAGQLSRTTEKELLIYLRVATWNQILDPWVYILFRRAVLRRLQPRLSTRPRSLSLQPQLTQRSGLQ
# experimental details: Antagonistic potency against Thromboxane A2 receptor expressed as inhibition of U 46619-induced platelet aggregation in human platelet rich plasma.
# Assay type: functional
# assay setup: read-out: pA2 (converted)
The reply should contain only the number, in nM.

Fill blank: measured Kb of the compound `Cc1ccc(OC(C)(C)[C@H]2OC[C@@H](C/C=C\CCC(=O)O)[C@@H](c3cncn3C)O2)c([N+](=O)[O-])c1` is ____.
3.98

Fill blank: measured Kb of the compound `Cc1ccc(OC(C)(C)[C@H]2OC[C@@H](C/C=C\CCC(=O)O)[C@@H](c3cccnc3)O2)c([N+](=O)[O-])c1` is ____.
3.98

Fill blank: measured Kb of the compound `Cc1ccc(OC(C)(C)[C@H]2OC[C@@H](C/C=C\CCC(=O)O)[C@@H](c3cncs3)O2)c([N+](=O)[O-])c1` is ____.
5.01

Now for the compound whose Kb we want.
Fill blank: measured Kb of the compound `CCCCCCn1cncc1[C@H]1O[C@@H](C(C)(C)Oc2ccc(C)cc2[N+](=O)[O-])OC[C@H]1C/C=C\CCC(=O)O` is ____.
200
